# assay.protocol: yeast display, Sf9 membrane polyspecificity reagent, FACS + sequencing; frameworks hold sequencing errors
assay.endpoint: polyreactivity (PSR sort gate)

[
  {
    "chain.sequence": "QVQLVESGGGLVQAGGSLRLSCAASGFTFWWYAMGWYRQAPGKERELVASIDTRGGTYYADSVKGRFTISRDNAKNTVYLQMNRLKPEDTAVYYCNADGAYGNYRGGYWGQGTQVTVSS",
    "polyreactivity (PSR sort gate)": "high polyreactivity"
  },
  {
    "chain.sequence": "QVQLVETGGGLVQAGGSLRISCAASGSTFVDYDMGWYRQAPGKERELVAGITTGGSTNYADSVKGRFTISRDNAKNTVYLQMNSLKPEDTAVYYCNADSYPNLVPDYLYYWYEYWGQGTQVTVSS",
    "polyreactivity (PSR sort gate)": "low polyreactivity"
  },
  {
    "chain.sequence": "QVQLVESGGGLVQAGGILRLSCASSGRTFKSYTMGWYRQAPGKERELVASISVSGGRTYYADSVKGRFTISRDNAKNTVYLQMNSLKPEDTAVYYCAAYYVHYRPVRGYDYWGQGTEVTVSS",
    "polyreactivity (PSR sort gate)": "high polyreactivity"
  },
  {
    "chain.sequence": "QVQLVESGGGLVQAGGSLRLSCAASGSTFAVYTMGWYRQAPGKERELSTSYADSVKGRFTISRDNAKNTVYLQMNSLKPEDTAVYYCAADYDAWYDDIEYDYWGQGTQVTVSS",
    "polyreactivity (PSR sort gate)": "low polyreactivity"
  },
  {
    "chain.sequence": "QVQLVESGGGLVQAGGSLRLSCAASGFTFHSYAMGWYRQAPGKERELVAAISGRGGSTYYADSVKGRFTISRDNAKNTVYLQMNSLKPEDTAVYYCARYGYHDYGYWGQCTQVTVSS",
    "polyreactivity (PSR sort gate)": "high polyreactivity"
  },
  {
    "chain.sequence": "QVQLVESGGCIVQAGGSLRLSCAASGSIFTYNAMGWYRQAPGKERELVAAISASGGRTYYADSVKGRFTISRDNAKNTVYLQMNSLKPEDTAVYYCAARILVYGLRRFDYWGQGTQVNVSS",
    "polyreactivity (PSR sort gate)": "high polyreactivity"
  },
  {
    "chain.sequence": "QVQLVESGGGLVQAGGSLRLSCAASGNTFRRYAMGWYRQAPGKERELVAAITGGTRTYYADSVKGRFTISRDNAKNTVYLQMISLKPEDTAVYYCAARLTSRSYRYDYWGQGTQVTVSS",
    "polyreactivity (PSR sort gate)": "high polyreactivity"
  },
  {
    "chain.sequence": "QVQHVESGGGLVQAGGSLRLSCAASGYTFCRYAMGWYRQAPGKERELVAAISQSGGRTYYADSVKGRFTISRDNAKNTVYFQMNSLKPDDTAVYYCATSSTQGDDYWGQGTQVTVSS",
    "polyreactivity (PSR sort gate)": "high polyreactivity"
  }
]

Give a short answer stating reported polyreactivity (PSR sort gate) for `QVQLVESGGGLVQAGGSLGLSCAASGRTFYRNAMGWYRQAPGIERELVAPITNGGRTYYADSVKGRFTISRDNAKNTVNLQMNSLKPEDTAVYYCNALDAKLSEYEYWGQGTEVTVSS` .
low polyreactivity

Supply measured polyreactivity (PSR sort gate) of `QVQLVESGGGLVQAGGSLRLSCAASGRIFKWNAMGWYRQAPGKERELVAAISTSGGNTYYADSVKGRFTISRDYAKNTVYLQMNSLKPEDTAVYYCAATYPNSLRQVGYWGQGTQVTVSS` in your reply.
high polyreactivity

Give the value of polyreactivity (PSR sort gate) reported for the following: `QVQLVESGGGLVQAGGSLRLSCAASGSTFWIYAMGWYRQPPGKERELVAAISWSTGRTYYADSVKGRFTISRDNAKNTVYLQMNSLKPEDTAVYYCNAGPQHNTLKLFYYWGQGTQVTVSS`
low polyreactivity

Identify polyreactivity (PSR sort gate) associated with the sequence `QVQLVESGGGLVQAGGRLRLSCAPSGRTFKYYAMGGYREAPGKERELVASISSGGNTNYADSVKGRFTISRDNATNSVYFQMNSLKPEDTAVYYCAASTWQNRRSYYWGQGTQVTVSS`
high polyreactivity

Input `QVQLVESGGGLVQAGGSLRLSCAASGITFTFNAMGWYRQAPGKERELVAAITWSGGSTFYADSVKGRFTISRDNAKNTVYLQMNSLKPEDTAVYYCARDTELYVRWLDYWGQGTQVSVSS` , output reported polyreactivity (PSR sort gate).
low polyreactivity

Quick one: give measured polyreactivity (PSR sort gate) for `QVQLVESGGGLVQAGGSLRLSCAASGSIFNYNDMGWYRQAPGKERELVATITNGGGTNYADSVKGRFTISRDNAKNTVFLQMNSLKPEDTAVYYCAAGRSGWGYDSWGQGTQVTVSS`
low polyreactivity

// fetch polyreactivity (PSR sort gate) given entry `QVQLEESGGGLVQAGGSLRLSCADSGSTLYWNAMGWYRQAPGKERELVAVISESGGTTYYADSVKGRFTISRDNAKNTVYLQMNSLKPEDTAVYYCAAVWYYQFGVWGYYWGQGTQVTVSS`
low polyreactivity

Recall and state the measured polyreactivity (PSR sort gate) for `QVQLVESGGGLVQAGGSLRLSCAASGSIFVHYAMGWYRQAPGKERELVASISTSGGRTRYADSVKGRFTISRDNAKNTVYLQMNSLKPEDTAVYYCAALRWGRRYDYWGQGTQVTVSS` .
high polyreactivity

###

# assay.protocol: yeast display, Sf9 membrane polyspecificity reagent, FACS + sequencing; frameworks hold sequencing errors
assay.endpoint: polyreactivity (PSR sort gate)

[
  {
    "chain.sequence": "QVQLVESGGGLVQAGGSLRISCAASGSTFGWYTMGWYRQAPGKERELVAAISQGGGRTRYADSVKGRFTISRDNAKNTVYLQMNSLKPEDTAVYYCAATYYHRPYISNYGYWGQGTQVTVSS",
    "recorded.measurement": "high polyreactivity"
  },
  {
    "chain.sequence": "QVQLVESGGGLVQAGGSLRLSCADSGSTFYPYAMGWYRQAPGKEREFVAAISRGGTTTYYADSVKGRFTISRDNAKNTVYLQMNSLKPEDTAVYYCAARYVSVYRWTYDYWGQGTQVTVSS",
    "recorded.measurement": "high polyreactivity"
  }
]

###

# assay.protocol: yeast display, Sf9 membrane polyspecificity reagent, FACS + sequencing; frameworks hold sequencing errors
assay.endpoint: polyreactivity (PSR sort gate)

Reference set (5 entries):
[
  {
    "chain.sequence": "QVQLVESGGGLVQAGGSLRLSCAASGFIFRSYAMGWYRQAPGKEREFVAAITTRGTGTYYADSVKGRFTISRDNAKNTVYLQMNSLKPEDTAVYDCAARRGWGDDYWGQGTQVTVSS",
    "polyreactivity (PSR sort gate)": "high polyreactivity"
  },
  {
    "chain.sequence": "QVQLVESGGGLVQAGGSLRLSCAASGSIFGYNVMGWYRQAPGKERELVAAITVNGGRTYYADSVKGRFTISRDNAKNTVYLQINSLKAEDTAVYYCAARVTGTQRSGYYWGQGTQVTVSS",
    "polyreactivity (PSR sort gate)": "high polyreactivity"
  },
  {
    "chain.sequence": "QVQLVESGGGIVQEGGSLRLSCAASGRIFGTNAMGWYRQAPGKERELVATITRGGGNTYYADSVKGRFTISRDNAKNTVYLQMKSLKPEDTAVYYCAAKFHRFAWYSHYDYWGQGTQVTVSS",
    "polyreactivity (PSR sort gate)": "low polyreactivity"
  },
  {
    "chain.sequence": "QVQLVESGGGLVQAGGSLRLSCAASGSTFTVYAMGWYRQAPGKERELVAAITVSTDSTYYADSVKGRFTISRDNAKNTVYLQMNSLKPEDTAVYYCAADSARSGYGRYDSWGQGTQVTVSS",
    "polyreactivity (PSR sort gate)": "low polyreactivity"
  },
  {
    "chain.sequence": "QVQLVESGGGLVQAGGSLRLSCAASGRISLHNTIGWYRQAPGKERELVAAINYSGGSTYYADTVKGRFTISRDNAKNTVYLQMNSLKPEDTEVYYCAADFYQSHFYRPRYDYWGQGTQVTVSS",
    "polyreactivity (PSR sort gate)": "low polyreactivity"
  }
]

State its polyreactivity (PSR sort gate) for this sequence: `QVQLVESGGGLVQAGGSLRLSCAASGRTFDVYAMGWYRQPPGKESELVATISYRSARTYSADSVKGRFTISRDNAKNTVYLQMNSLKPEDTAVYYCAARVGARVSQPRRHGRFNYWGQGTQVTVSS`
high polyreactivity

Report polyreactivity (PSR sort gate), nothing else, for this sequence: `QVQLVESGRGLVHAGGSLLLSCAASGSTFGWYAMGRFIQARGKEREFVAAISWSGTSTYYADSVKGRFTISRDNAKNTFDLQMNSLKPEDTAVYYCASRWVVFTEREDYWGQGTQVTVSS`
low polyreactivity

State, in one line, measured polyreactivity (PSR sort gate) of `QVQLVESGGGLVQAGGSLRLSCAASGRIFGFYALGWYRQAAGKEWELVAAISQSRGSTYYADSVKGRFTISRDTANNTVYLQMNSLKPEDTAVYYCAKGYKYGKNIYYYWGQGTQVTVSS`
high polyreactivity

Respond only with polyreactivity (PSR sort gate) recorded for `QVQLQESGGGLVQAGGSLLSCAASGTISYYREMGWYRQAPGKERELVAGIGVGTITYYADSVKGRFTISRDNAKNTVYLHMNSLKPEDTAVYYCAAHIDGNDSHAYWGQGTQVTVSS`
low polyreactivity

Report polyreactivity (PSR sort gate) for `QVQLVESGGGLVQAGGSLRLSSAASGSTFLVYSMGWSRQAPGKERELVAAIRGAGSTNYADSVKGRFTISRDNAKNTVYLQMIRLKPEDTAVYYCAAYLLYTPSMDYWGQGTQVTVSS`
low polyreactivity

Give me measured polyreactivity (PSR sort gate), please, for this sequence: `QVQLVESGGGLVQAGGSLRLSCAASGSTFLYNRMGWYRQAPGKERELVAAISSVGSTYYADSVKGRFTISRDNAKNTVYLQMNSLKPEDSAVYYCAASYDWRAYRRDFYYWLTGDYWGQGTQVTVSS`
low polyreactivity
